System: Jurkat
Assay: Cell proliferation modulatory activity, Jurkat
Format: cell-based
Settings: Homo sapiens
measured_parameter: IC50

[[record]]
line_notation = "CN(C)c1ncc2c(n1)c(NC1CC1)nc1cc(C(=O)O)ccc12"
observed_measurement = "> 50 µM"

[[record]]
line_notation = "O=C(O)c1ccc2c(c1)nc(NC1CC1)c1nc(NCc3cccnc3)ncc12"
observed_measurement = "> 50 µM"

[[record]]
line_notation = "COC(=O)c1ccc2c(c1)nc(Nc1ccccc1C)c1nc(S(C)(=O)=O)ncc12"
observed_measurement = "> 30 µM"

[[record]]
line_notation = "CC(=O)Nc1cccc(Nc2ncc3c(n2)c(NC2CC2)nc2cc(C(=O)O)ccc23)c1"
observed_measurement = "> 62.5 µM"


Now examine the next entry.
Req: Give IC50 only, for O=C(O)c1ccc2c(c1)nc(NC1CC1)c1nc(NCCO)ncc12 , using Jurkat data.
Resp: > 50 µM

---

Target: recombinant human PIM1 (Homo sapiens (Human), UniProt P11309)
Sequence (P11309 whole entry): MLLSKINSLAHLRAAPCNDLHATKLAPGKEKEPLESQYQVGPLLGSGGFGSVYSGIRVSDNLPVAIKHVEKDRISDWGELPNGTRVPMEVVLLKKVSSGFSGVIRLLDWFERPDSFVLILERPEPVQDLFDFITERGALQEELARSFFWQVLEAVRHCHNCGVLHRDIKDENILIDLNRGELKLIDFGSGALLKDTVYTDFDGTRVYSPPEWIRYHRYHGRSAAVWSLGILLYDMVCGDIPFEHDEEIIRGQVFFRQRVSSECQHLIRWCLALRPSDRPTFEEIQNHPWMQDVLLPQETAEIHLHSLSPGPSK
Test: PIM-1 kinase activity in cell-free in vitro assay
Format: biochemical
Conditions: 500 nM compound, cell-free assay; read-out: PIM-1: % inh 500 nM
measured_parameter: inhibition at 0.5 µM (%)

# count of solved cases: 4
[[record]]
compound = "C#Cc1cccc(Nc2nc3cc(C(=O)O)ccc3c3cnc(NC4CC4)nc23)c1"
target_or_system = "recombinant human PIM1 (Homo sapiens (Human), UniProt P11309)"
measured_parameter = "inhibition at 0.5 µM"
observed_measurement = -38.6

[[record]]
compound = "C#Cc1cccc(Nc2nc3cc(C(=O)N4CCOCC4)ccc3c3cncnc23)c1"
target_or_system = "recombinant human PIM1 (Homo sapiens (Human), UniProt P11309)"
measured_parameter = "inhibition at 0.5 µM"
observed_measurement = -17.6

[[record]]
compound = "O=C(O)c1ccc2c(c1)nc(NC1CC1)c1nc(Nc3cccc4ccccc34)ncc12"
target_or_system = "recombinant human PIM1 (Homo sapiens (Human), UniProt P11309)"
measured_parameter = "inhibition at 0.5 µM"
observed_measurement = 22.9

[[record]]
compound = "CC(C)OCCNc1nc2cc(C(=O)O)ccc2c2cnccc12"
target_or_system = "recombinant human PIM1 (Homo sapiens (Human), UniProt P11309)"
measured_parameter = "inhibition at 0.5 µM"
observed_measurement = 48.2


A. CN1CCCCC1CNc1nc2cc(C(=O)O)ccc2c2sccc12 (centres unmarked)
B. N#Cc1ccc2c(c1)nc(OCC(F)(F)F)c1ccsc12
C. O=C(O)c1ccc2c(c1)nc(NC1CC1)c1nc(NC3CCNCC3)ncc12
D. CCOCCNc1ncc2c(n1)c(NC1CC1)nc1cc(C(=O)O)ccc12
E. O=C(O)c1ccc2c(c1)nc(Nc1cccc(Cl)c1)c1cccnc12
Req: List by increasing inhibition at 0.5 µM. Kindly provide the labels arranged according to the requested ordering.
Resp: B, D, C, E, A
(B: -50.2%, D: -8.19%, C: 18.9%, E: 59.9%, A: 88%)

---

Tested on: HCT-116 human colorectal carcinoma cells
Test: Cell-proliferation assay using Alamar Blue dye;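 note: cells exposed to compound for about 4 days, then Alamar Blue added and dye fluorescence read after about 4 h, compared with medium-only control wells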
Format: cell-based
Conditions: Homo sapiens, HCT-116, second HCT-116 column (c8); read-out: HCT-116 (uM) cell proliferation modulatory activity
measured_parameter: IC50

[[record]]
line_notation = "CCn1c2ccccc2c2cc(Nc3nc4cc(C(=O)O)ccc4c4cnccc34)ccc21"
measured_parameter = "IC50"
observed_measurement = "9.82 µM"

[[record]]
line_notation = "N#Cc1ccc2c(c1)nc(Nc1ccc(Cl)cc1)c1cscc12"
measured_parameter = "IC50"
observed_measurement = "> 10 µM"


Now examine the next entry.
Req: Provide one value: measured IC50 of CN(C)CCCN(C)c1nc2cc(C#N)ccc2c2sccc12
Resp: 3.92 µM
